Source listed as ChEMBL document CHEMBL1961873.

# testTarget: cGMP-dependent protein kinase 2 (Homo sapiens) (UniProt Q13237);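 further: reported figure is a mean inhibition value against PRKG2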
# Sequence (Q13237 whole entry): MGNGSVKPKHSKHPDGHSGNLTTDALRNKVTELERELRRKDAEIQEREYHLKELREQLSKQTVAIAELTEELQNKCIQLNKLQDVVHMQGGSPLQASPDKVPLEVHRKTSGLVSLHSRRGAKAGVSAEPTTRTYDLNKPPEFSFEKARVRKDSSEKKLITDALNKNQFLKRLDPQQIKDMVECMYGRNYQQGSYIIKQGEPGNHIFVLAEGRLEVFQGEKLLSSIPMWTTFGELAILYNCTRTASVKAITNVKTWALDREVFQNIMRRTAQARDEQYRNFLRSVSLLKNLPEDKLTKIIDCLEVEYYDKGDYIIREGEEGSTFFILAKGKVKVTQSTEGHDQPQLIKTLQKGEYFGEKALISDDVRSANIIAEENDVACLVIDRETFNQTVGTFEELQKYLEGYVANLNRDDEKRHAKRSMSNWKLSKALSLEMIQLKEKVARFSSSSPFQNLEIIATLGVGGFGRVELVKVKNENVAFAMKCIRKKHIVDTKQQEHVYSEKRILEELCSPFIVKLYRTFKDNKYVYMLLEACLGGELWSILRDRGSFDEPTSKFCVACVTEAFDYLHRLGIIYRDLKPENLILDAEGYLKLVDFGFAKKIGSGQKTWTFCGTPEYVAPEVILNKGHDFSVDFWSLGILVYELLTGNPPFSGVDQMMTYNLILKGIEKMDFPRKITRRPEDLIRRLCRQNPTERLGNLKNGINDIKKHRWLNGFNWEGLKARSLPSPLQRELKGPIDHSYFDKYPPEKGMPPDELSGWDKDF
# conditionNotes: at 0.1 µM
Would you please tag the item 1.0 when its inhibition is 0.9% or above, and 0.0 when it is below?

Field: example entries. Status: answers known.
Quick check, inhibition >= 0.9%? `COc1cc2ncn(-c3cc(OCc4ccccc4Cl)c(C(N)=O)s3)c2cc1OC`
0.0

Tell me whether inhibition is at least 0.9% here: `Nc1ncnc2occ(-c3ccc(NC(=O)Nc4cc(C(F)(F)F)cc(C(F)(F)F)c4)cc3)c12`
0.0

Say whether `COc1cc(C=NNc2ncnc3c2cnn3-c2ccccc2)ccc1O` shows inhibition of 0.9% or more.
1.0

Attention now turns to another entry.
Item CC1=C(C(=O)Nc2ccc3[nH]ncc3c2)C(c2ccc3ccccc3c2)CC(=O)N1 (stereo unspecified) with inhibition of 0.9% or above?
1.0
